The molecules below each have a reported IC50 tested on Non-receptor tyrosine-protein kinase TYK2 (Homo sapiens, UniProt P29597); the values come from various publications.

Example results:
Query: Suppose we examine the molecule Cc1cc(Nc2ncc(C)c(N3CC(CC#N)(N4CC5C(C4)C5(F)F)C3)n2)sn1 (centres unmarked) ; what IC50 value has been reported?
Result: < 10 nM

Query: Suppose we examine the molecule "C=CC[C@H](Cn1ccc2cnc(Nc3cnn(CC(=O)OC(C)C)c3)nc21)C(C)C" ; what IC50 value has been reported?
Result: < 100 nM

Query: Suppose we examine the molecule "CNC(=O)c1coc(-c2cnc3[nH]ccc3c2N[C@@H]2CCCN(C(=O)CC#N)C2)n1" ; what IC50 value has been reported?
Result: 10 to 100 nM

Query: Suppose we examine the molecule NC(=O)c1cnc(Nc2ccc3c(c2)NCC(O)CO3)nc1NC1CCCC1 (centres unmarked) ; what IC50 value has been reported?
Result: < 10 nM

Query: Suppose we examine the molecule Cn1cc(-c2cc3nccn3c(-c3cnn(C(CC#N)c4ccc(Cl)cc4)c3)n2)cn1 (centres unmarked) ; what IC50 value has been reported?
Result: 10 to 100 nM

Query: Suppose we examine the molecule COC(=O)CC(c1ccc(F)cc1)n1cc(-c2nc(-c3cnn(C)c3)cc3nccn23)cn1 (centres unmarked) ; what IC50 value has been reported?
Result: 100 to 1000 nM

Query: Suppose we examine the molecule NC(=O)c1cnc(Nc2ccc3c(c2)NCC(O)CO3)nc1NCc1ccccn1 (centres unmarked) ; what IC50 value has been reported?
Result: < 10 nM

Would you kindly look at the next entry?
Query: Suppose we examine the molecule "Nc1cc2ccc1-c1ccnc(n1)Nc1ccc(Oc3ccccc3)c(c1)COCCCCNC2=O" ; what IC50 value has been reported?
Result: > 10000 nM

---

The compounds below each have a reported pIC50 tested on Non-receptor tyrosine-protein kinase TYK2 (Homo sapiens); the values come from various publications.
pIC50: −log10 of the molar value.

Query: Recall the recorded pIC50 for "Cc1ccnc(-c2cnc3[nH]ccc3c2N[C@@H]2CCCN(C(=O)CC#N)C2)c1" with Non-receptor tyrosine-protein kinase TYK2 (Homo sapiens) and state it.
Result: 7.00 to 8.00

Query: Recall the recorded pIC50 for CCC(CC)n1cc(-c2nc(-c3cnn([C@H]4CCC[C@H]4O)c3)cn3nccc23)cn1 (single isomer, unassigned) with Non-receptor tyrosine-protein kinase TYK2 (Homo sapiens) and state it.
Result: 6.00 to 7.00

Query: Recall the recorded pIC50 for "Nc1ncnc2c1c(-c1cc(OC[C@@H]3CCCO3)ccc1F)cn2[C@H]1C[C@@H](N2CCN(C(=O)CO)CC2)C1" with Non-receptor tyrosine-protein kinase TYK2 (Homo sapiens) and state it.
Result: < 5.00

Query: Recall the recorded pIC50 for "CCn1nc(C(=O)NCCC(F)(F)F)c2c1CCN(c1ncnc3[nH]ccc13)C2" with Non-receptor tyrosine-protein kinase TYK2 (Homo sapiens) and state it.
Result: < 5.70

Query: Recall the recorded pIC50 for "CN(c1ccccc1CNc1nc(-c2cc(F)c(O)cc2CC(F)(F)F)cc2[nH]nc(C(N)=O)c12)S(=O)(=O)CCCN1CCOCC1" with Non-receptor tyrosine-protein kinase TYK2 (Homo sapiens) and state it.
Result: 7.09

***
Query: Recall the recorded pIC50 for CCC(Cn1ccc2cnc(Nc3cnn(CC(=O)OC[C@@H](C)O)c3)nc21)C(C)C (stereo partly drawn) with Non-receptor tyrosine-protein kinase TYK2 (Homo sapiens) and state it.
Result: > 7.00

Query: Recall the recorded pIC50 for "Cc1cc(Nc2nc(N[C@@H]3C[C@H]4CC[C@@H](C3)N4C(=O)c3ccccn3)nc3ccccc23)n[nH]1" with Non-receptor tyrosine-protein kinase TYK2 (Homo sapiens) and state it.
Result: 9.52

Query: Recall the recorded pIC50 for "CS(=O)(=O)Nc1ccnc(-c2cnc3[nH]ccc3c2N[C@@H]2CCCN(C(=O)CC#N)C2)c1" with Non-receptor tyrosine-protein kinase TYK2 (Homo sapiens) and state it.
Result: 6.00 to 7.00

Query: Recall the recorded pIC50 for "Cc1cc(Nc2nc(NC3CCN(S(=O)(=O)N4CC(C#N)C4)CC3)nc3sccc23)n[nH]1" with Non-receptor tyrosine-protein kinase TYK2 (Homo sapiens) and state it.
Result: 9.47

---

The compounds below each have a reported IC50 tested on Non-receptor tyrosine-protein kinase TYK2 (Homo sapiens, UniProt P29597); the values come from various publications.

Query: Suppose we examine the compound "CCOC(=O)Cn1cc(Nc2ncc3ccn(C[C@H]4CC[C@H](N)CC4)c3n2)cn1" ; what IC50 value has been reported?
Result: < 100 nM

***
Query: Suppose we examine the compound "Cc1cc(Nc2ncc(C)c(N3CC(CC#N)(NC(=O)c4cccc(Cl)c4)C3)n2)sn1" ; what IC50 value has been reported?
Result: < 10 nM

Query: Suppose we examine the compound "N#Cc1cccc(S(=O)(=O)N[C@H]2C[C@@H](Nc3c(-c4ccncn4)cnc4[nH]ccc34)C2)c1" ; what IC50 value has been reported?
Result: ≤ 10 nM

Query: Suppose we examine the compound "O=C(NCCC(F)(F)F)c1noc2c1CN(c1ncnc3[nH]cnc13)CC2" ; what IC50 value has been reported?
Result: > 2000 nM

Query: Suppose we examine the compound C[C@H]1C[C@@H](Nc2c(-c3nccs3)cnc3[nH]ccc23)CN(CC2CC2(F)F)C1 (stereo partly shown) ; what IC50 value has been reported?
Result: 10 to 100 nM

Query: Suppose we examine the compound "O=C(CCl)Nc1cccc(-c2cnc3ccccc3n2)c1" ; what IC50 value has been reported?
Result: > 20000 nM

Query: Suppose we examine the compound "CCC(CC)n1cc(-c2nc(-c3cnn(C4CN(C(=O)C5CC5)C4)c3)cn3nccc23)cn1" ; what IC50 value has been reported?
Result: 10 to 100 nM

---

The compounds below each have a reported IC50 tested on Non-receptor tyrosine-protein kinase TYK2 (Homo sapiens); the values come from various publications.

Example results:
Query: Recall the recorded IC50 for "CS(=O)(=O)N1CC(CNC(=O)c2noc3c2CN(c2ncnc4[nH]ccc24)CC3)C1" with Non-receptor tyrosine-protein kinase TYK2 (Homo sapiens) and state it.
Result: > 2000 nM

Query: Recall the recorded IC50 for "CCOC(=O)Cn1cc(Nc2ncc3ccn(Cc4csc(C)n4)c3n2)cn1" with Non-receptor tyrosine-protein kinase TYK2 (Homo sapiens) and state it.
Result: 100 to 1000 nM

Query: Recall the recorded IC50 for CCC(CC)Cn1ccc2cnc(Nc3cnn(CC(=O)OC4CC(C#N)C4)c3)nc21 (stereo not drawn) with Non-receptor tyrosine-protein kinase TYK2 (Homo sapiens) and state it.
Result: < 100 nM

Query: Recall the recorded IC50 for NC(=O)c1cnc(Nc2ccc3c(c2)NC[C@H](O)CO3)nc1NC1CC1F (stereo partly drawn) with Non-receptor tyrosine-protein kinase TYK2 (Homo sapiens) and state it.
Result: < 10 nM

Would you kindly look at the next entry?
Query: Recall the recorded IC50 for "CNC(=O)c1ccnc(-c2cnc3[nH]ccc3c2N[C@H]2C[C@@H](NS(=O)(=O)c3cccc(C#N)c3)C2)c1" with Non-receptor tyrosine-protein kinase TYK2 (Homo sapiens) and state it.
Result: 10 to 100 nM

---

The compounds below each have a reported IC50 tested on Non-receptor tyrosine-protein kinase TYK2 (Homo sapiens, UniProt P29597); the values come from various publications.

Example results:
Query: Recall the recorded IC50 for "CCC(CC)n1cc(-c2nc(-c3cnn([C@H]4C[C@@H](CO)C4)c3)cn3nccc23)cn1" with Non-receptor tyrosine-protein kinase TYK2 (Homo sapiens, UniProt P29597) and state it.
Result: 10 to 100 nM

Query: Recall the recorded IC50 for Cn1cc(-c2cc3nccn3c(-c3cnn(C(CCF)C4CC4)c3)n2)cn1 (centres unmarked) with Non-receptor tyrosine-protein kinase TYK2 (Homo sapiens, UniProt P29597) and state it.
Result: < 10 nM

Query: Recall the recorded IC50 for "C[C@H]1CC[C@@H](Nc2c(-c3ncco3)cnc3[nH]ccc23)CN1C(=O)CC#N" with Non-receptor tyrosine-protein kinase TYK2 (Homo sapiens, UniProt P29597) and state it.
Result: ≤ 10 nM

Query: Recall the recorded IC50 for "O=C1NCCCCOCc2cc(ccc2N2CCOCC2)Nc2ncc(Cl)c(n2)-c2ccc1cc2" with Non-receptor tyrosine-protein kinase TYK2 (Homo sapiens, UniProt P29597) and state it.
Result: 11 to 100 nM

***
Query: Recall the recorded IC50 for "CCC(CC)n1cc(-c2nc(-c3cnn([C@H]4C[C@H](O)C4)c3)cn3nccc23)cn1" with Non-receptor tyrosine-protein kinase TYK2 (Homo sapiens, UniProt P29597) and state it.
Result: 10 to 100 nM

---

The molecules below each have a reported IC50 tested on Non-receptor tyrosine-protein kinase TYK2 (Homo sapiens); the values come from various publications.

Example results:
Query: Suppose we examine the molecule "CC[C@@H](Cn1ccc2cnc(Nc3cnn(CC(=O)OC(C)C)c3)nc21)C(C)C" ; what IC50 value has been reported?
Result: < 100 nM

Query: Suppose we examine the molecule "CCOC(=O)Cn1cc(Nc2ncc3ccn(CC4CCCCC4)c3n2)cn1" ; what IC50 value has been reported?
Result: < 100 nM

Query: Suppose we examine the molecule "CCN1CC(CCF)(n2cc(-c3nc(-c4cnn(C)c4)cc4nccn34)cn2)C1" ; what IC50 value has been reported?
Result: > 1000 nM

***
Query: Suppose we examine the molecule "O=C(NCCC(F)(F)F)n1ccc2c1CN(c1ncnc3[nH]ccc13)CC2" ; what IC50 value has been reported?
Result: > 2000 nM

Query: Suppose we examine the molecule "O=C1NCCCCOCc2cccc(c2)Nc2nccc(n2)-c2ccc1cc2F" ; what IC50 value has been reported?
Result: 1000 to 10000 nM

Query: Suppose we examine the molecule "CCCN1CCC(CC#N)(n2cc(-c3nc(-c4cnn(C)c4)cc4nccn34)cn2)CC1" ; what IC50 value has been reported?
Result: 100 to 1000 nM

Query: Suppose we examine the molecule "O=C(NCCC(F)(F)F)c1nn(Cc2ccccc2)c2c1CN(c1ncnc3[nH]ccc13)CC2" ; what IC50 value has been reported?
Result: > 2000 nM

Query: Suppose we examine the molecule "Cc1cc(Nc2ncc(C)c(N3CC(CC#N)(NC(=O)c4cncc(F)c4)C3)n2)sn1" ; what IC50 value has been reported?
Result: < 50 nM
